- ASSAY_PROTOCOL: label from the status in PepcDB records
ASSAY_READOUT: protein production

MSSLALRSPALALALTLGGLLLCGPVQAQQANSANDMVGRMQYRISELERLVQDLTGKVEQSLYENRQLQTKLENAQSDIDFRLNALESAGPAAAAPANSVPSSARPTASAGAGKQGTPAPAEGVLGFPGKTAPAQGAASAARPAAAGALPAGSENDQYNYAFSLLRNADYPAAEQAFKAFLDQHPKGSLAGNAQYWLGETYYVRGDYEQAAVAFMGGYQSHPDSSKGPDNLLKLGLAMANLGKSKEACAAFGRLESQYPKAADAIKRRAKEGMSKLGC failed
NLNSIQNFGAIDILCTDKTGTLTQDKVVLEYHLNVNGEDDTRVLRHAYLNSYFQTGYKNLMDLAIIHKTEEEEAADSRLIDLSENYVKVDEIPFDFTRRRLTTVVQDNKGKTQMVTKGAVEEMLSICAFAECNGGVQPLTDDVRYRILETVDNLNDKGFRVLAIAQKSNPSPIGAFGVKDECDMVLIGYLAFLDP failed
MKILIDGDACPKAVLQICLKKGRQYGIPVWTVASFNHEIASDHHIVVGNAPQETDLKVVNLSEAGDIIVTQDIGLAAMVLGKGARALSPTGKEYRPESIANLLEERELKAKYRRSLEHHHHHH not failed
RLNFLDTLGRAVTEATDPDQIMAITTRMLVEHLGLSSCAYAVMDPDEDGFTICGDAVTPGSPRLVGHYHLHDFGRLAVSRLRSGLALVINDNLRELAADEAATYQAIGITATICMPLIKGGRLTALMAIHDRVPRAWTDYEQTLISEVTERCWAHIQRAQAHAEVREAMAALEALNTTLE failed

As a next step, examine the sequence that follows.
// protein production value for VEPSEENSKDCVVCQNGTVNWVLLPCRHTCLCDGCVKYFQQCPMCRQFVQESFAL : not failed

Measured values drawn from a protein production outcome set (Wang et al. 2014) for this set.
